Values compiled from patent US20190307843A1.

Experiment: Plasma and lung epithelial lining fluid (ELF) concentrations in ICR mice, 20 mg/kg IP
Format: in vivo, mouse
Conditions: ICR, mouse, lung epithelial lining fluid (ELF), ip, 20 mg/kg, 20 mg/kg IP; read-out: AUC exposure ratios of ELF/plasma
Starred links: 1 amine or outer side, 2 acyl side, 3 side chain; linkers in the order of their positions; H or OH if unused. Positions of bridges follow the written chain, without caps; N, C: chain ends. Non-standard residues stand in square brackets, D forms with d. Residues, ends and D or L forms follow the SMILES beside them. *: point of attachment. Orn(4R-OH,5R-OCH2CH2NMe3+) = C[N+](C)(C)CCO[C@@H](N[*:3])[C@H](O)C[C@H](N[*:1])C(=O)[*:2]; pTerphenylCO(4''-OnC5H11) = CCCCCOc1ccc(-c2ccc(-c3ccc(C(=O)*)cc3)cc2)cc1; hTyr(3S-OH,4S-OH) = N[C@H](C(=O)O)[C@H](O)[C@@H](O)c1ccc(O)cc1; Pro(3S-OH,4S-Me) = C[C@H]1CN[C@H](C(=O)O)[C@H]1O; Hyp = O=C(O)[C@@H]1C[C@@H](O)CN1

MOLECULE: CCCCCOc1ccc(-c2ccc(-c3ccc(C(=O)N[C@H]4C[C@@H](O)[C@@H](OCC[N+](C)(C)C)NC(=O)[C@@H]5[C@@H](O)[C@@H](C)CN5C(=O)[C@H]([C@@H](C)O)NC(=O)[C@H]([C@H](O)[C@@H](O)c5ccc(O)cc5)NC(=O)[C@@H]5C[C@@H](O)CN5C(=O)[C@H]([C@@H](C)O)NC4=O)cc3)cc2)cc1 [CD101] ({pTerphenylCO(4''-OnC5H11)}-[Orn(4R-OH,5R-OCH2CH2NMe3+)]T[Hyp][hTyr(3S-OH,4S-OH)]T[Pro(3S-OH,4S-Me)]; lactam 1-C)
Kp: 0.8 to 0.95
